Target: CXCR3 (Homo sapiens, UniProt P49682)
Construct: host or cells: CHO-K1 (cAMP Hunter CHOK1 CXCR3 Gi cell line)
Sequence (P49682 1-368): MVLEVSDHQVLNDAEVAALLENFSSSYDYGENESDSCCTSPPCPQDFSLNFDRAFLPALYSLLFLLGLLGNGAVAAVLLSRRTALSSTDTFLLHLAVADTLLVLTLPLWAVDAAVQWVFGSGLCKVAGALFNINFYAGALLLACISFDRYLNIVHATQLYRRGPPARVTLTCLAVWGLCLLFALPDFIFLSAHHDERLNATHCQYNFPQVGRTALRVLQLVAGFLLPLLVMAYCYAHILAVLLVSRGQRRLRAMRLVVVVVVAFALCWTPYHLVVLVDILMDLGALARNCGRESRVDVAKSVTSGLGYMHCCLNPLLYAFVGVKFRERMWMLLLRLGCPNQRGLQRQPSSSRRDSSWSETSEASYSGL
Assay: CXCR3 cAMP agonist assay (cAMP Hunter CHOK1 CXCR3 Gi cell line, forskolin-stimulated, HitHunter cAMP detection)
Format: cell-based
Conditions: cAMP Hunter CHOK1 CXCR3 Gi cells, 20 μM forskolin, 30 minutes; read-out: Activity (CXCR3 cAMP agonist assay compound EC50)
pEC50: −log10 of the molar value.
Please go through the items and note down their pEC50.

INSERT INTO results (compound, reading) VALUES
  ('Cc1ccc(NC(=O)[C@H](CCN)NC(=O)[C@@H]2Cc3ccccc3CN2C(=O)CCC(=O)c2ccccc2)c(OC(F)(F)F)c1 [Compound 13-7]', '6.60 to 7.30'),
  ('NCC[C@H](NC(=O)[C@@H]1Cc2ccccc2CN1C(=O)CCC(=O)c1ccccc1)C(=O)Nc1ccc2c(c1)OCO2 [Compound 2-63]', '6.60 to 7.30'),
  ('C[C@@H]1CN(C(=O)CCC(=O)N2Cc3ccccc3C[C@H]2C(=O)N[C@@H](CCN)C(=O)Nc2ccc(Cl)c(Cl)c2F)CCN1C [Compound 15-64]', '6.60 to 7.30'),
  ('NCC[C@H](NC(=O)[C@@H]1Cc2ccccc2CN1C(=O)CCC(=O)c1ccccc1)C(=O)Nc1ccc(Cl)c(Cl)c1 [Compound 2-1]', '6.60 to 7.30'),
  ('NCC[C@H](NC(=O)[C@@H]1Cc2ccc(F)cc2CN1C(=O)CCC(=O)N1CCCC2(CCC2)C1)C(=O)Nc1ccc(Cl)c(Cl)c1F [Compound 15-58]', '> 7.30');

Look up pEC50 for the entries below, preserving their order.
1. CC1(C)CCN(C(=O)CCC(=O)N2Cc3ccccc3C[C@H]2C(=O)N[C@@H](CCN)C(=O)Nc2ccc(Cl)c(Cl)c2F)C1 [Compound 15-2]
2. N#Cc1c(NC(=O)[C@H](CCN)NC(=O)[C@@H]2Cc3ccccc3CN2C(=O)CCC(=O)c2ccccc2)ccc(Cl)c1Cl [Compound 14-26]
3. COc1cc(C)c(F)cc1NC(=O)[C@H](CCN)NC(=O)[C@@H]1Cc2ccccc2CN1C(=O)CCC(=O)c1ccccc1 [Compound 2-71]

1: > 7.30; 2: 6.60 to 7.30; 3: 6.60 to 7.30

Look up pEC50 for the entries below, preserving their order.
1. CN(C)CC1CCCCN1C(=O)CCC(=O)N1Cc2ccccc2C[C@H]1C(=O)N[C@@H](CCN)C(=O)Nc1ccc(Cl)c(Cl)c1F (some centres unmarked) [Compound 15-17]
2. O=C(CCC(=O)N1Cc2ccccc2C[C@H]1C(=O)NC1(C(=O)Nc2cccc(Cl)c2Cl)CCNCC1)c1ccccc1 [Compound 11-5]
3. COc1cc2c(cc1NC(=O)[C@H](CCN)NC(=O)[C@@H]1Cc3ccccc3CN1C(=O)CCC(=O)c1ccccc1)CCCC2 [Compound 2-59]
4. Cc1ccc(NC(=O)[C@H](CCN)NC(=O)[C@@H]2Cc3ccccc3CN2C(=O)CCC(=O)c2ccccc2)cc1C [Compound 2-3]
5. Cc1cc(NC(=O)[C@H](CCN)NC(=O)[C@@H]2Cc3ccccc3CN2C(=O)CCC(=O)N2CC3(COC3)C2)ccc1Cl [Compound 12-9]

< 6.30
< 6.30
6.30 to 6.60
> 7.30
< 6.30

Report pEC50 for Cc1cc(NC(=O)[C@H](CC[N+](C)(C)C)NC(=O)[C@@H]2Cc3ccccc3CN2C(=O)CCC(=O)c2ccccc2)ccc1Cl [Compound 6-7] please.
6.60 to 7.30
